Would you mind telling me the reported composite z-score of each entry?
- Tested on: wheat germ agglutinin (Triticum aestivum), Alexa647-labelled
- Assay: wheat germ agglutinin binders on compound microarrays, profiling panel, artefact control for SMM control-protein annotation, biochemical, small-molecule microarray, 635/667 nm fluorescence (AID 1140);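 also: score merges 667 nm feature emission with signal to noise over triplicate slides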
- Protocol conditions: WGA-A647 binding, 635 nm fluorescence, higher = more signal

Would you please look over these solved cases?
I am curious: what composite z-score value has been reported for C=C(CCCC)/C(=C/C[C@H](OC(=O)c1ccncc1)c1ccc(CO)o1)c1cnc2ccccc2c1 ?
1.28

Bench note: what composite z-score did COCCOC(=O)N1C(=O)[C@@]2(c3ccccc31)[C@H](C(=O)Nc1nc3ccccc3s1)[C@H]1C(=O)O[C@H](c3ccccc3)[C@H](c3ccccc3)N1[C@@H]2c1ccc(O)cc1 show?
1.16

Endpoint output: composite z-score of COc1ccc([Si](C)(C)[C@@H]2[C@@H](CC(=O)N3CCC[C@H]3CO)O[C@]3(C(=O)N(Cc4ccc(N5CCC5=O)cc4)c4ccccc43)[C@H]2C)cc1 . Value?
0.0389

Quick check: composite z-score of CC(C)N1C(=O)c2ccccc2[C@@H](C(=O)NCc2ccccc2)[C@@H]1c1ccc(CO)cc1 ?
-1.51

Recorded composite z-score of CC(=O)OC(C/C=C\B1OC(C)(C)C(C)(C)O1)c1ccccc1 (configuration not stated) , please.
-0.405

Name the reported composite z-score value associated with the compound CCOC(=O)C[C@H]1[C@H](OC(=O)c2ccc(C(=O)c3ccccc3)cc2)[C@@H](NC(=O)Cc2ccc(OC)cc2)c2cc(OCCCO)ccc2N1C(=O)Cc1ccc(OC)cc1
0.855

Shifting focus to the compound that follows.
Look up composite z-score: CO[C@H]1O[C@H](CO)[C@@H](OC(=O)Nc2ccccc2)[C@H](OC(=O)Nc2ccc3c(c2)OCO3)[C@H]1OC(=O)Nc1ccc2c(c1)OCO2
0.571

---

- Assay: compound binding in COS7 lysate, probe aLAP1, primary screen, cell lysate, small-molecule microarray (AID 1124);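 also: lysate comes from COS7 cells expressing LAP1 and is applied at 0.3 µg/mL; score merges spot fluorescence near 667 nm with signal-to-noise over triplicate slides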
- Protocol conditions: probe aLAP1, fluorescence, higher = more signal
Note to self: values exactly at 0.4 are Condition met. So composite z-score at or above 0.4 is Condition met, below is Condition not met.

Check the entry CO[C@H]1O[C@H](CO)[C@@H](OC(=O)Nc2ccccc2)[C@H](OC(=O)Nc2ccccc2-c2ccccc2)[C@H]1OC(=O)Nc1ccccc1-c1ccccc1 : does composite z-score equal or exceed 0.4?
Condition met

---

- Target desc: Calmodulin-1 (Homo sapiens) (UniProt P0DP23)
- Assay: CALM1 binders on microarrays, EGTA buffer, profiling panel, biochemical, small-molecule microarray, Cy5-labelled CALM1 (AID 1111);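 also: labelled calmodulin applied in Tris saline Tween buffer holding calcium plus EGTA and DTT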
- Protocol conditions: Cy5-CALM1 binding fluorescence, higher = more signal
Decision: composite z-score >= -0.1 yields satisfied, all other cases yield not satisfied.

Example cases with answers are listed next.
Exam item: decide whether the reported composite z-score for C=CCC1(CC=C)C[C@H]2CO[C@H](c3ccc(OC)cc3)N2C1=O is at least -0.1.
not satisfied

Given the entry CCN(CC)c1ccc(N2CC=CC34O[C@@H]5C=CCOC(=O)[C@@H]5[C@H]3C(=O)N(C(C)CO)[C@@H]4C2=O)cc1 (some centres not stated) , answer whether its composite z-score meets or surpasses -0.1.
not satisfied

Kindly determine if composite z-score recorded for Cc1ccc(S[C@]2(C(=O)NC3CC3)CC(=O)N(Cc3ccccc3C(F)(F)F)[C@@H]2c2ccc(CO)cc2I)cc1 is above or exactly -0.1.
satisfied

Quick check, composite z-score >= -0.1? CCCCC(=C=CC[C@H](O)c1cccc(OCCO)c1)CCO
not satisfied

API: above_or_equal(metric=composite z-score, cutoff=-0.1) for item COC(=O)[C@@]1(CCC(=O)OC(C)(C)C)COC(c2ccc(OCCCO)cc2)=N1
not satisfied

Hi team, for C=CCN1C(=O)[C@@]2(O[C@@H](CCn3cc(CCO)nn3)[C@H]([Si](C)(C)c3ccc(OC)cc3)[C@H]2C)c2cc(N3C(=O)c4cccc5cccc3c45)ccc21 , is the recorded composite z-score at or above -0.1?
satisfied

Now consider the entry below.
For this compound, is measured composite z-score -0.1 or higher? COc1ccc([Si](C)(C)[C@H]2[C@H](CC(=O)N(CCO)Cc3ccccc3)O[C@@]3(C(=O)N(Cc4cccc(N5C(=O)COc6ccccc65)c4)c4ccccc43)[C@@H]2C)cc1
not satisfied
